Recorded measurements of Light Transmittance at 550 nm, one per entry
# Run Description: Light transmittance of optical filter (dye-containing acrylic adhesive sheet, 1000 ppm dye)
# Format: physicochemical
# Condition Context: dye 1000 (wt)ppm in acrylic adhesive, 25 μm
// note: answer is a bare numeric in %

Light Transmittance at 550 nm reading for CCCCCCCCCCOc1ccc(C2=c3nc(c4c5ccc(Cl)c6c(Cl)ccc(c3=4)c65)C(c3ccc(OCCCCCCCCCC)cc3)=c3c4c(c5[n]3[Ni][n]3c2c2c(c3C(c3ccc(OCCCCCCCCCC)cc3)=c3nc(c6c7ccc(Cl)c8c(Cl)ccc(c3=6)c87)C=5c3ccc(OCCCCCCCCCC)cc3)-c3ccc(Cl)c5c(Cl)ccc-2c35)-c2ccc(Cl)c3c(Cl)ccc-4c23)cc1 : 66.6

Light Transmittance at 550 nm reading for CCCCCCCCCCOc1ccc(C2=c3nc(c4c5cccc6cccc(c3=4)c65)C(c3ccc(OCCCCCCCCCC)cc3)=c3c4c(c5[n]3[Ni][n]3c2c2c(c3C(c3ccc(OCCCCCCCCCC)cc3)=c3nc(c6c7cccc8cccc(c3=6)c87)C=5c3ccc(OCCCCCCCCCC)cc3)-c3cccc5cccc-2c35)-c2cccc3cccc-4c23)cc1 : 57.5

Please examine the following record next.
Light Transmittance at 550 nm reading for CCCCCCOc1ccc(C2=c3nc(c4c5cccc6cccc(c3=4)c65)C(c3ccc(OCCCCCC)cc3)=c3c4c(c5[n]3[Cu][n]3c2c2c(c3C(c3ccc(OCCCCCC)cc3)=c3nc(c6c7cccc8cccc(c3=6)c87)C=5c3ccc(OCCCCCC)cc3)-c3cccc5cccc-2c35)-c2cccc3cccc-4c23)cc1 : 49.8
